Where do these numbers come from? They come from patent US20250346592A1.

Target: UniProt:Q9UM07
Sequence (Q9UM07 whole entry): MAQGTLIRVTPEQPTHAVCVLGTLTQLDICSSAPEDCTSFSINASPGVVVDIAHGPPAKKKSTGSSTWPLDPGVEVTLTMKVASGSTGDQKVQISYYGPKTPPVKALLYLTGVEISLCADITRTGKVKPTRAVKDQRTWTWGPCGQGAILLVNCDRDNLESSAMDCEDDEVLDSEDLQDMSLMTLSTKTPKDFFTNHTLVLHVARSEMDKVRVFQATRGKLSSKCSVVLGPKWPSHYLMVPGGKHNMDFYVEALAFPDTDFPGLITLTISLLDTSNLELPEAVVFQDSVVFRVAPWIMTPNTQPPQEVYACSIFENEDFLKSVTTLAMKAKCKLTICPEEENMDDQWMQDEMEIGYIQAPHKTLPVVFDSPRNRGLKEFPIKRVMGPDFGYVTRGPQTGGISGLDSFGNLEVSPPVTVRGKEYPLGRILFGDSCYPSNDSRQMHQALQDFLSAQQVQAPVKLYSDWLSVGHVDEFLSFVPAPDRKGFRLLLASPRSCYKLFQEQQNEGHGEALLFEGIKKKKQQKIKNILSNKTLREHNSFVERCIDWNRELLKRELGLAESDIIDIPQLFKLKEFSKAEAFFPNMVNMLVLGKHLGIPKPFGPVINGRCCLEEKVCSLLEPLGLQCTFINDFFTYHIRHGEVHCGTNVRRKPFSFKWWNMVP
Experiment: RFMS1 assay (RapidFire mass spectrometry, BAEE substrate)
Assay type: biochemical
Settings: 5 nM hPAD4, 250 μM BAEE, 30 min preincubation at 37° C., 90 min reaction; read-out: RFMS 1 IC50
pIC50: −log10 of the molar value.
Entries annotated with measured pIC50

Please review the entries below; each comes with its answer.
[
  {
    "COMPOUND": "Cc1cc(C(N)=O)c(F)cc1-c1ccc2cc(-c3nc4cc5c(cc4n3C)CCN(C[C@H](N)CF)C5=O)n(CC3CC3)c2n1 [Example 60]",
    "TESTED ON": "UniProt:Q9UM07",
    "pIC50": "7.00 to 7.96"
  },
  {
    "COMPOUND": "CC(C)[C@@H](N)CN1CCc2cc3c(cc2C1=O)nc(-c1cc2ccccc2n1CC1CC1)n3C [Example 11]",
    "TESTED ON": "UniProt:Q9UM07",
    "pIC50": "< 6.00"
  },
  {
    "COMPOUND": "Cn1c(-c2cc3cccc(/C=C/Cn4ccnc4)c3n2CC2CC2)nc2cc3c(cc21)CCN(C[C@H](N)CF)C3=O [Example 227]",
    "TESTED ON": "UniProt:Q9UM07",
    "pIC50": "≥ 8.00"
  },
  {
    "COMPOUND": "COc1cccc2cc(-c3nc4cc5c(cc4n3C)CCN(C[C@H](N)[C@H](C)F)C5=O)n(CC3CC3)c12 [Example 15a]",
    "TESTED ON": "UniProt:Q9UM07",
    "pIC50": "6.30 to 7.00"
  }
]

# get_value(readout= pIC50, system= UniProt:Q9UM07) for COc1cccc2cc(-c3nc4cc5c(cc4n3C)CCN(C[C@H]3COCCN3)C5=O)n(Cc3ncco3)c12 [Example 232]
6.30 to 7.00
